Target: T1, Eaf3 chromodomain (residues 1-120), wild type (Saccharomyces cerevisiae)
T1 construct: Eaf3, Saccharomyces cerevisiae (budding yeast), chromodomain, residues 1-120; 15N-labelled for the NMR titrations; also called Eaf3 CD; WT; source: E. coli BL21(DE3)pLysS, purified (Ni-NTA, thrombin, Ni-NTA, Superdex75)
T1 chain: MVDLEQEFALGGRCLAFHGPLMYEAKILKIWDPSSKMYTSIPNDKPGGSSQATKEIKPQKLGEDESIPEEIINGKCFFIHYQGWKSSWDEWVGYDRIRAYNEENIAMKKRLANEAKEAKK
Assay: NMR titration; 0.1 mM 15N-labeled Eaf3 CD titrated with unlabeled histone H3 peptide; 1H,15N-HSQC; 10 mM potassium phosphate pH 6.8, 20 mM NaCl, 5 mM deuterated DTT, 25°C; Kd from the titration curves of Ala25
Conditions: both partners purified
Where no end group is shown, it is not given here. me2 = dimethylated (di-methylated lysine)
Value type: Kd (mM)
Give bare numbers, in mM.

Please state, for each entry, its recorded Kd.
1. SAPSTGGVK(me2)KPHRYKPGT (histone H3; source: synthetic peptide (bought: Qiagen and SIGMA Genosys)) [Histone H3 peptide dimethylated at Lys36 (H3K36me2), 18 residues]
2. SAPSTGGVK(me3)KPHRYKPGT (histone H3; source: synthetic peptide (bought: Qiagen and SIGMA Genosys)) [Histone H3 peptide trimethylated at Lys36 (H3K36me3)]

Outgoing:
1. 4.41
2. 1.94
